- Test method notes: protein stability index of a GFP-peptide fusion (GPS, HEK-293T) (PSI 1-6); higher = more stable;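 further: 24-mer peptide tiles fused after GFP, lentivirally expressed, FACS-sorted into six equal bins by GFP/DsRed ratio, decoded by Illumina sequencing, PSI is the read-weighted mean bin number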
- Condition description: treatment: MLN4924 1 uM, 8 h; c terminus: a fixed tail appended
# if value of protein stability index reaches 3, tag criterion met; if it stays below, tag criterion not met

Sequence string	Assigned label
AMAERNRRDAEEWFHAKSAELNKE [KRT13]	criterion met
QCGPQTGLQSPGTLQPPEFLYSHG [TBX5]	criterion met
PEITTEDIKAAFAPFGRISDARVV [TIA1]	criterion met
FKLKESCVRRRYSDFEWLKNELER [SNX12]	criterion not met
SCKEGLSPRGPAPGEEKFENLEGV [ZNF263]	criterion met
TEDCPTGSALTFREEQCAAYNHRT [ADAMTS4]	criterion met

====

- Test method notes: protein stability index of a GFP-peptide fusion (GPS, HEK-293T) (PSI 1-6); higher = more stable
- Condition description: treatment: DMSO; c terminus: a fixed tail appended
Readout: protein stability index

Sequence string	Readout	Experimental value
GHVEVARLLLDSGAQVNMPADSFE [ANKRD17]	protein stability index	3.88
GSVYFWATPRQVPSLQHLCRMSIR [WSB1]	protein stability index	3.05
QLGTAGQGFSYSKSNGRGGSQAGG [MYOZ1]	protein stability index	4.54
STRGAARPAQAIGTQPRATKHKCR [SPACA9]	protein stability index	5.13
EKLGSGEPSHSVKVHTVPKPGKGA [ATE1]	protein stability index	5.04
RRLAQEPLGLEVDQFLEDVRLQER [NOP53]	protein stability index	4.5
KENKDVIQKNKLKLTREQEELEEA [MNAT1]	protein stability index	5.49
ERDLQELSIQVEEERRAREWLLDA [ZMAT5]	protein stability index	4.54
LKIYNKREEDFPSLREYNDFLEEV [MNAT1]	protein stability index	3.19
GHSSSRDDYPSRGYSDRDGYGRDR [RBMX]	protein stability index	4.87
MADCILVNSQFTAAVFKETFKSLS [ALG2]	protein stability index	2.66
IYPVWTYSYLVLLFPVFLATDYLR [SLC19A2]	protein stability index	3.11
FAPLLDEQYDLATKRVRQLLDLDP [GOLPH3]	protein stability index	2.64
TGEVRTARALLEDDSDTQQVVVLV [PCDHGC5]	protein stability index	2.5
LDSDHRELIGDYSKAFLLQTVDGK [CDC25B]	protein stability index	3.77
GEEQSQYMHVGSCQHLSSSAEELR [KCNA3]	protein stability index	4.83
PLLMNRQRVPKVLVENAKNFPQCV [EFHC1]	protein stability index	2.46
IRERATIEETYSKAMAKLSKLASN [FCHO1]	protein stability index	3.02
TSPECASPQFEGPLSPPPINYNGI [NEUROD6]	protein stability index	4.07
FGATTNYGKDIVKACSLLDVAVHM [ZBED1]	protein stability index	2.17
AFPSGHLLDAHILEWHDSLFQILS [ZNF511]	protein stability index	2.35
EQVANKGEPLALPLDAGEYCVPRG [BEX1]	protein stability index	4.86
AVFIALLPILGHRDYKIQASRTWC [PTGFR]	protein stability index	2.95
KFSYMWTINNFSFCREEMGEVLKS [SPOPL]	protein stability index	2.34
WGFGLEELYGLALRFFKEKDGKAF [ACBD3]	protein stability index	2.4
TSAVLKAGRQSVSGRKNSTSKDLV [C6orf223]	protein stability index	4.26
LKAKLQMTEAALALSEQKAQDLGE [LRRC45]	protein stability index	4.51
MAESLRSPRRSLYKLVGSPPWKEA [RPAIN]	protein stability index	2.73
TINIKCHVHDPHGQVIWGMSWAKL [FBXO39]	protein stability index	2.84
RTIRHVYCKTSDGRVVPESQCQME [ADAMTSL2]	protein stability index	4.08
TGILIFAIGVGQVDFNTLKSIGSE [MATN2]	protein stability index	3.69
VQTGLDQYQQVPVEIVKSDFHKPF [IQUB]	protein stability index	3.5
TVDSMIPAYATTRIRSQIGNTESE [GDAP1]	protein stability index	4.86
NIKPRRYLTVVFEHDAWFIFFMAA [SLC29A1]	protein stability index	3.1
FLSGMEAAPRTLAAHPPLPLLPPA [TBX6]	protein stability index	2.95
SLLSLPVWVLMDEDVRIFFYQSPY [NCF4]	protein stability index	2.56
APGRPGHPSGHWATCRLCGEQVGR [ZBED3]	protein stability index	2.33
SIPVTELSASGPFESHDLLRKGFS [POMP]	protein stability index	3.5
IIDNTNLHAWEMKPYAVMVFQTEQ [N4BP2L1]	protein stability index	2.15
KTFYKTADISQMLVCTADGDIHLS [TAF7L]	protein stability index	2.47
LQLETVLEGVVSQIDAVGSKLKML [PKD2L1]	protein stability index	2.37
VEPKHCFTSPDYQQQCHEMAERLE [SDE2]	protein stability index	4.85
WDLSEAWMQANYDPLSDSDSMTSQ [ELOA2]	protein stability index	4.34
IILTNQSVREVTQIKCIELKSELG [P2RY14]	protein stability index	2.14
AWHCSESGQRLGGYRTSAVASGLQ [WDFY2]	protein stability index	2.84
DLEEERREEEEKTPPETKPDPPVN [PCMTD2]	protein stability index	5.64
LASYPLALVRTRMQAQASIEGAPE [SLC25A25]	protein stability index	4.03
VCVDRVLYLFGGHHSRGNTNKFYM [KLHDC2]	protein stability index	2.37
LRLEWETQQELRKIREKEEWIKLD [IQUB]	protein stability index	3.12
EELTREAVAVDVAVPKRLLEIVGR [HAGHL]	protein stability index	3.85
GLVYRLNRFRVEISFHFEVTNHNI [TRIM43]	protein stability index	3.33
PETQARLEALLEAAGIGKLSTADG [ANKRD17]	protein stability index	2.95
VLDVNNQSFREQEEPSNKRVRPLA [NET1]	protein stability index	3.46

====

- Test method notes: protein stability index of a GFP-peptide fusion (GPS, HEK-293T) (PSI 1-6); higher = more stable
- Condition description: treatment: DMSO; c terminus: a fixed tail appended
Class assignment keyed on protein stability index, ranges low = under 3, medium = from 3 up to 4, high = 4 and over

Sequence string	Assigned label
SQEAADTPDTRHPCSLGSSLVADY [YJU2B]	high
ELNNCISMLVAGNDRVQTIITQLE [TRIM63]	low
RGAPPPPPSRAPTAAPPPPPPSRP [WASL]	high
SYSPASASSGGAGAAVGTGSSYPT [JUNB]	high
IERLTREVEATRRALIDRMVNLHQ [DDIT3]	low
FRDATSAPLRKLSVDLIKTYKHIN [DYRK1B]	medium
FKKVLDLNPGFQDATLSLKQTILD [TTC32]	low
GRPSMVWLSANPCPHCGDRTFYDP [PRAME]	low
PMQESKAEGNNQAPGEEEEEEEEA [CHGA]	high
SVHFDGETIEGAPPLWAASAAGHL [FEM1A]	medium
VQRIMVANIEEVLQRGEALSALDS [SEC22B]	low
ERRGTPADTEEPTKDPDVAFHGLS [PSD2]	high

====

protein stability index for assorted sequences
- Test method notes: protein stability index of a GFP-peptide fusion (GPS, HEK-293T) (PSI 1-6); higher = more stable
- Condition description: treatment: DMSO; c terminus: a fixed tail appended

Sequence string	protein stability index
KCRDLSALMHELSNDGARRQFEFY [BTBD10]	2.06
RKRAVPCGACLTQLFFFHLFVGVD [OR3A1]	2.82
FAYYKLNDVRQAARSAASYMLFDP [P3H4]	2.12
KHAKKEREESLPNLLQYVRMPLLT [KLHL12]	3.26
LGRFNDINVPIRLECVKFASHCLM [PDS5B]	2.83
AMREAIQSYPSQDKPLPPPPPGSL [SOAT2]	4.23
WMMQNLLLEEGGLVQVESVNLQVA [UFD1]	2.1
EEAISVVMSGKMSVSKAQSIYGIP [LCOR]	2.69
MSRVHGMHPKETTRQLSLAVKDGL [ZMYND11]	3.83
SRGYRNHRSSRETRDYAPPSRGHA [RBMY1A1]	4.63
MSVGHLRLLSHDQVAMPYQWEYPY [JAGN1]	2.11
RLLQAQLQAQKEELQSLMHQPKGL [PBXIP1]	2.91
AALLILFAASLLTVFAWLLQYARG [C2CD2L]	2.74
LWEAPPLGAGGGSLLPGAVEQPQP [NEK8]	4.42
VLFSTHTLDKCGICQGDGSSCTHV [ADAMTSL2]	3.8
TFFRLLLPEAPPKKFLTLGSKFRY [EPB41L3]	2.23
MAPLLFNGCRSGEIFAIDLRCGNQ [DCAF4]	2.52
GVMSAYAMCVRYDGVEVDDSYCDA [ADAMTSL2]	3.05
RNTGAYTSSGLATASFRTSKYLLE [TEKT4]	3.1
DYVMTTLLFSDKNVNSNLITWNRV [TRIP13]	2.4
WIPQAGPPELNYGATGECQNFLDP [ZNF449]	4.29
RSFKEELLCAVCYDPFRDAVTLRC [TRIM35]	2.58
STRLTRIHLREDLVQDQDLEAIRK [ZER1]	4.67
SRETECSRVGKQSFIITLGCNSVL [CARM1]	2.3
VVAGDTVSTGSTDNSPTSNSLEGG [ADAMTSL2]	5.39
DCEVFRQRFRQFQYREAAGPHEAF [ZNF449]	2.94
SAFTAAHELGHVFNMLHDNSKPCI [ADAMTS4]	2.93
EEYCHKHYDRNKDGNKDVYLSLLR [VPS39]	3.23
SQHCKPEEGLEARGEALGLVGAQA [MAGEA3]	4.73
ESEFDIEDEDKSEPEQTGADAAED [RBBP5]	5.73
SCKEGLSPRGPAPGEEKFENLEGV [ZNF263]	5.37
MFVFQDGRWVNENCRLQSPYFSPS [CBY2]	2.36
PSVCSENIHPQVLLPDQARGEVPW [ZNF263]	4.19
GGGTPSLASPHTVAAVLEAVAQTA [RSAD1]	3.46
GKNPDVDTSFLPDRDREEEENRLR [FAM50A]	5.26
HDIVRFLVQLDDYRFASAGDDGIV [WDR41]	2.21
DREQVSSYNITVTATDGGSPPLST [PCDHGA10]	4.54
VLFSVAGGLFVGKEGPMIHSGSVV [CLCN6]	2.58
NICHVWHMNVEALPEWISCLIQKA [RNF180]	2.01
ERLAKNLVEKGVLTTEKQNFLLFD [GOLPH3]	3.16
SEAKADKILAEAAKLVPMGFTTAT [RAD51]	3.93
LVHSAVDVPTIQEKVNEGKYRSYE [ZMYND11]	4.47
DKFVATMYHYLQFAYYKLNDVRQA [P3H4]	2.75
PYQALRLWARGTWTQATGLGCALL [SOAT2]	2.09
EKSVTKDAEGLAARDVQKIIGDYF [INTS4]	2.85
DTGLFSRSKSGSEEVLCDSCIGNK [TRIM29]	4.61
